- assayedTarget: histamine H3 (Homo sapiens)
- Sequence (Q9Y5N1 whole entry): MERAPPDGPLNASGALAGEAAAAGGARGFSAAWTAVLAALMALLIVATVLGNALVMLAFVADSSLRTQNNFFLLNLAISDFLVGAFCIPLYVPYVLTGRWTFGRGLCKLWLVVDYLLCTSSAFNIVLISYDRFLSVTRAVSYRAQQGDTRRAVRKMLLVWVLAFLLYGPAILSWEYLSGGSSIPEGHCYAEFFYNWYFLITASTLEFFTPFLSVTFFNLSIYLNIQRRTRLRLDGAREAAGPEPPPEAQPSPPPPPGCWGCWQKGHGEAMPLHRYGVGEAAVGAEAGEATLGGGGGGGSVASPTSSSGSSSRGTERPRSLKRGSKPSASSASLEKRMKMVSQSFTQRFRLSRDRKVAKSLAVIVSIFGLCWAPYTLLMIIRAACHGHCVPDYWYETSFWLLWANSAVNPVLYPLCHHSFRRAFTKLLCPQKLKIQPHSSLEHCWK
assayEndpoint: pKi
Scale: negative log10 of molar concentration, which is what pKi denotes.

# value of pKi, histamine H3 (Homo sapiens), item N=C(N)NCCC[C@H]1NCCc2c1[nH]c1cc(Br)ccc21 [compound 7, (+)-7-Bromotrypargine] = 5.74

* * *

- assayedTarget: histamine H3 (Homo sapiens)
- test: functional assay, H3
assayEndpoint: IC50
Put your answer as a value accompanied by its unit after it.

IC50 for N=C(N)NCCC[C@H]1NCCc2c1[nH]c1cc(Br)ccc21 [compound 7, (+)-7-Bromotrypargine] is 3.6 µM

* * *

- assayedTarget: norepinephrine transporter, NET (Homo sapiens)
- Sequence (P23975 whole entry): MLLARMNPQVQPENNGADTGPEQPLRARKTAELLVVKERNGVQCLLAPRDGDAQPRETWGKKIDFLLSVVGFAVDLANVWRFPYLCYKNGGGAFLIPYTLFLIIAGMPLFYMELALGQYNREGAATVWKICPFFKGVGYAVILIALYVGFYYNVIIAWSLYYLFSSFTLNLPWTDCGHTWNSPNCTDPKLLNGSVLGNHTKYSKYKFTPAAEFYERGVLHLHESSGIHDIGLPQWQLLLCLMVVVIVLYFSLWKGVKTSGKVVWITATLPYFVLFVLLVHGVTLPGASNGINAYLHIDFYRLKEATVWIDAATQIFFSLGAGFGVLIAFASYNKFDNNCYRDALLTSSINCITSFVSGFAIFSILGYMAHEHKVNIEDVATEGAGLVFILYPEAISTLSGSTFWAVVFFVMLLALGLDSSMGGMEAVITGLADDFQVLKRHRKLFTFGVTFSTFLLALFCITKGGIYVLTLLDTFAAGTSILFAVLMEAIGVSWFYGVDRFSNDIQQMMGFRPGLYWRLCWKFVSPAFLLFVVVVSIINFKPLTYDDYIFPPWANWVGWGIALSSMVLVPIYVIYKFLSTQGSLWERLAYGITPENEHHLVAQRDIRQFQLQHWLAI
assayEndpoint: Ki (µM)
Write down the numeric answer in µM and omit the unit.

Ki for N=C(N)NCCC[C@H]1NCCc2c1[nH]c1cc(Br)ccc21 [compound 7, (+)-7-Bromotrypargine] is 1.9

* * *

- assayedTarget: norepinephrine transporter, NET (Homo sapiens)
- test: functional assay, NET
assayEndpoint: IC50 (nM)
Write down the numeric answer in nM and omit the unit.

IC50 for N=C(N)NCCC[C@H]1NCCc2c1[nH]c1cc(Br)ccc21 [compound 7, (+)-7-Bromotrypargine] is 1900

* * *

- assayedTarget: Dopamine Transporter, DAT (Homo sapiens, UniProt Q01959)
- Sequence (Q01959 whole entry): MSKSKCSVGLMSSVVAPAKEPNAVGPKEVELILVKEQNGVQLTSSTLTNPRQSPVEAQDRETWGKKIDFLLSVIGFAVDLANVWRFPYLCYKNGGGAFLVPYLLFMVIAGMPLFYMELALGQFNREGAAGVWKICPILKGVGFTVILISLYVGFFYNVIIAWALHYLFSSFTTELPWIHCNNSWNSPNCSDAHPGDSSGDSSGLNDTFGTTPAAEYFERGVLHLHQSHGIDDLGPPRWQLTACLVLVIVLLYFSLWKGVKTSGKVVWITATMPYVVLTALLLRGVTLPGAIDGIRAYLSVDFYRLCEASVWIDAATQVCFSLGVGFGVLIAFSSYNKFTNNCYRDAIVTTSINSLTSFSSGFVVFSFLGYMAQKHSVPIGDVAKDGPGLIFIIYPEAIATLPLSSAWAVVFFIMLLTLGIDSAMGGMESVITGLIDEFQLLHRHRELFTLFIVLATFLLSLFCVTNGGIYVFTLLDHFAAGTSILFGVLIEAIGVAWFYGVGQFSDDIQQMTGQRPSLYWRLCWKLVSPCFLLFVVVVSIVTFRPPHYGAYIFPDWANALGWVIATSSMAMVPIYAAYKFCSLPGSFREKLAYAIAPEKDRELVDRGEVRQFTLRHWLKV
- test: functional assay, DAT
assayEndpoint: pIC50
Scale: negative log10 of molar concentration, which is what pIC50 denotes.

pIC50 for N=C(N)NCCC[C@H]1NCCc2c1[nH]c1cc(Br)ccc21 [compound 7, (+)-7-Bromotrypargine] is 5.42
